Hey, just so you know, these numbers are from the RNAGym collection of RNA variant scans (doi:10.1073/pnas.2313332121).

B1: TPR t1 (parent)
chain: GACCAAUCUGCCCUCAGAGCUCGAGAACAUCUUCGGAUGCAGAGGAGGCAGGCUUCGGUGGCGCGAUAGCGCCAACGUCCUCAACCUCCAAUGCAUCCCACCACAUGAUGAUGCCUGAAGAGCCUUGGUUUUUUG

Variants of: B1
assay.info: polymerase ribozyme fitness, log enrichment relative to wild type (log ratio); higher = more active; in vitro selection for triplet polymerase activity
The entries below come with measured polymerase ribozyme fitness (log ratio) values attached.
# answer = number (no unit)

// below: answered variants
[
  {
    "biopolymer.sequence": "GACCAAUCUGCCCUCAGAGCUCGAGAACAUCUUCGGAUGCAGAGGAGGCAGGCUUCGGUGGCGCGAUAGCGCCAACCUCCUCAACCUCCAAUGCAUCCCACCACAUGAUGAUGCCUCAAGAGCCUUGGUUUUUUG [G77C G117C]",
    "reported.value": -4.29
  },
  {
    "biopolymer.sequence": "GACCAAUCUGCCCUCAGAGCUCGAGAACAUCUUCGGAUGCAGAGGAGGCAGUCUUCGGUGGCGGGAUAGCGCCAACGUCCUCAACCUCCAAUGUAUCCCACCACAAGAUGAUGCCUGAGGAGCCUUGGUUUUUUG [G52U C64G C94U U106A A119G]",
    "reported.value": -6.74
  },
  {
    "biopolymer.sequence": "GACCAAUCUGCUCUCAGAGCUCGAGAACAUCUUCGGAUGCAGAGGAGGCAAGCUUCGGUGGCGCGAUAGCGCCAACGUCCUCAACCUCCAAUGCAUCCCAUCACAUGAUGAUGCCUGAAGAGCCUUGGUUUUUUG [C12U G51A C101U]",
    "reported.value": -2.14
  },
  {
    "biopolymer.sequence": "GACCCAUCUGCCCUCAGAGCUCGAGAACAUCUUCGGAUGCAGAGGAGGCAGGCUUCGGUGGCGCGAUAGCGCCAACGCCCUCAACCUCCAAUGCAUCCCACCACAUGAUGAUGCCUGAAGAGCCUUCGCUUUUUG [A5C U78C G127C U129C]",
    "reported.value": -2.19
  }
]

Param item = GAGCAAUCUGCCCUCAGAGUUCGAGAACAUCUUCGGAUGCAGAGGGGGCAGGCUUCGGUGGCGCGAUAGCGCCAACGUCCUCAACCUCCAAUGCAUCCCACCACAUGAUGAUGCCUGAAGAGCUUUGGUUUUUUG [C3G C20U A46G C124U] ; retrieve measured polymerase ribozyme fitness (log ratio).
-2.93

Param item = GACCAAUCUGCCCUCAGGGCUCGAGAACAUCUUCGGAUGCAGUGGAGGCAGGCUUCGGUGGCGCGAUAGCUCCAACGUCCUCAACCCCCAAUGCAUCCCACCACAUGAUGAUGCCUGAAGAGCCUUGGUUUUUUG [A18G A43U G71U U87C] ; retrieve measured polymerase ribozyme fitness (log ratio).
-4.47

Param item = GACCAAUUUGCCCUCAGAGCUCGAGAACAUCUUCGGAUGCAGAUGAGGCAGGCUUCGGUGGCGCGAUAGCGCCAACGUCCUCAACCUCCAAUGCAUCCUACCACAUGAUGAUGCCUGAAGAGCCUUGGUUUUUUG [C8U G44U C99U] ; retrieve measured polymerase ribozyme fitness (log ratio).
-2.6
